# Test system: PDX1328
# Assay Comment: area over the GR curve, 72 h; higher = more effect;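 note: Dye Drop or Deep Dye Drop imaging of viable cells in 384-well plates (Hoechst nuclei, LIVE/DEAD dye), nine half-log doses, GR normalized to DMSO controls and time-zero plates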
Definition: the class of an entry is the range in low band = under 0.3 GR, middle band = from 0.3 GR up to 0.6 GR, high band = 0.6 GR and over that contains its area over the GR curve.

Field: example entries. Status: answers known.
{"columns": ["Compound", "Category"],
 "data": [
  ["CN(C)C(=O)c1cc2cnc(Nc3ccc(N4CCNCC4)cn3)nc2n1C1CCCC1 [LEE011/Ribociclib] (max 10 µM)", "middle band"],
  ["N.N.[Cl][Pt][Cl] [Cisplatin] (max 10 µM)", "low band"],
  ["Cc1cc(Nc2ncc(Cl)c(Nc3ccccc3S(=O)(=O)C(C)C)n2)c(OC(C)C)cc1C1CCNCC1 [Ceritinib/LDK378] (max 10 µM)", "middle band"]
]}

## Input Please classify: Nc1cc(C(F)(F)F)c(-c2cc(N3CCOCC3)nc(N3CCOCC3)n2)cn1 [Buparlisib/NVP-BKM120] (max 10 µM)
## Output middle band

## Input Record CC1(N)CCN(c2cnc(-c3cccc(Cl)c3Cl)c(N)n2)CC1 [SHP099] (max 10 µM) — which class?
## Output low band

## Input Place this compound in its band: CC(=O)O[C@H]1C(=O)[C@@]2(C)[C@H]([C@H](OC(=O)c3ccccc3)[C@]3(O)C[C@H](OC(=O)[C@H](O)[C@@H](NC(=O)c4ccccc4)c4ccccc4)C(C)=C1C3(C)C)[C@]1(OC(C)=O)CO[C@@H]1C[C@@H]2O [Paclitaxel] (max 1 µM)
## Output high band

## Input Band assignment needed for COc1cc2nccc(Oc3ccc(NC(=O)C4(C(=O)Nc5ccc(F)cc5)CC4)cc3)c2cc1OC [Cabozantinib] (max 10 µM) please.
## Output low band

## Input Using the reported area over the GR curve, which band applies to CCCCOc1c(C(=O)c2c(F)cc(C)cc2F)c[nH]c2nncc1-2 (max 10 µM) ?
## Output low band
